# Tested on: Adriamycin resistant strain 2780 AD cells of human ovarian cancer A2780 cells
# method_notes: Potentiating effect on incorporation of 3H-vincristine into adriamycin-resistant cancer cells
# Type: cell-based
# experimental_setup: Homo sapiens, 2780AD, 2 h, compound 1 μg/ml, 20 nM 3H-vincristine, control = 100, read-out: 3H-vincristine accumulation
Field: label. Allowed values: YES (activity at 1 µg/mL < 700%) or NO (activity at 1 µg/mL >= 700%).

{"compound": "OC(COc1cccc2cnccc12)CN1CCN(C2c3ccccc3CCc3ccccc32)CC1 (centres unmarked)", "class": "YES"}
{"compound": "OC(COc1cccc2ncccc12)CN1CCN(CC(c2ccccc2)c2ccccc2)CC1 (centres unmarked)", "class": "NO"}
{"compound": "Cc1cc(C)c2c(OCC(O)CN3CCN(C4c5ccccc5COc5ccccc54)CC3)cccc2n1 (centres unmarked)", "class": "NO"}
{"compound": "OC(COc1cccc2ncccc12)CN1CCC(=C2c3ccccc3CCc3ccccc32)CC1 (centres unmarked)", "class": "NO"}
{"compound": "O=C(C(c1ccccc1)c1ccccc1)N1CCN(CC(O)COc2cccc3ncccc23)CC1 (centres unmarked)", "class": "NO"}
{"compound": "O=C(CCN1CCN(C(c2ccccc2)c2ccccc2)CC1)Nc1cccc2ncccc12", "class": "YES"}
{"compound": "OC(COc1cccc2ncccc12)CN1CCN(C(c2ccccc2)c2ccc(Cl)cc2)CC1 (centres unmarked)", "class": "YES"}
{"compound": "OC(COc1cccc2ncccc12)CN1CCN(C(c2ccccc2)c2ccncc2)CC1 (centres unmarked)", "class": "YES"}
